Literature compilation of Ki measurements on UniProtKB P21398.
Express the result in µM but write the number alone.

molecule: O=C(NCCCCNC(=O)c1cc2ccccc2oc1=O)c1cc2ccccc2oc1=O
units: µM
Ki: 0.001
//
molecule: C=CCn1ccc(N2C[C@H](COC)OC2=O)c1
units: µM
Ki: 0.001
//
molecule: CCn1ccc(N2C[C@H](COC)OC2=O)c1
units: µM
Ki: 0.0006

Lookup: Ki / UniProtKB P21398 / `COC[C@H]1CN(n2cccc2)C(=O)O1`
0.0049

Lookup: Ki / UniProtKB P21398 / `Cc1csc(N/N=C/c2ccccc2C)n1`
0.0355

---

Literature compilation of pKi measurements on Amine oxidase [flavin-containing] A (Bos taurus, UniProt P21398).
pKi is defined as minus the log10 of a concentration measured in mol/L.

Completed entries (count: 2):
compound: [N-]=[N+]=NC[C@H]1CN(n2cccc2)C(=O)O1
pKi: 6.70
//
compound: Cc1csc(N/N=C/c2ccc(Cl)cc2)n1
pKi: 7.42

Lookup: pKi / Amine oxidase [flavin-containing] A (Bos taurus, UniProt P21398) / `O=C(NCCNC(=O)c1cc2ccccc2oc1=O)c1cc2ccccc2oc1=O`
7.48

Lookup: pKi / Amine oxidase [flavin-containing] A (Bos taurus, UniProt P21398) / `CCn1ccc(N2C[C@H](CNC)OC2=O)c1`
7.10

Lookup: pKi / Amine oxidase [flavin-containing] A (Bos taurus, UniProt P21398) / `NC(=S)N1N=C(c2ccc(F)cc2)C[C@@H]1c1ccc(Cl)cc1`
7.92

Lookup: pKi / Amine oxidase [flavin-containing] A (Bos taurus, UniProt P21398) / Cc1ccc(C2CC(c3ccc(F)cc3)=NN2C(N)=S)cc1 (stereo unspecified)
8.15

---

Literature compilation of Ki measurements on Amine oxidase [flavin-containing] A (Bos taurus).
Target: Amine oxidase [flavin-containing] A (Bos taurus)
Sequence (P21398 whole entry): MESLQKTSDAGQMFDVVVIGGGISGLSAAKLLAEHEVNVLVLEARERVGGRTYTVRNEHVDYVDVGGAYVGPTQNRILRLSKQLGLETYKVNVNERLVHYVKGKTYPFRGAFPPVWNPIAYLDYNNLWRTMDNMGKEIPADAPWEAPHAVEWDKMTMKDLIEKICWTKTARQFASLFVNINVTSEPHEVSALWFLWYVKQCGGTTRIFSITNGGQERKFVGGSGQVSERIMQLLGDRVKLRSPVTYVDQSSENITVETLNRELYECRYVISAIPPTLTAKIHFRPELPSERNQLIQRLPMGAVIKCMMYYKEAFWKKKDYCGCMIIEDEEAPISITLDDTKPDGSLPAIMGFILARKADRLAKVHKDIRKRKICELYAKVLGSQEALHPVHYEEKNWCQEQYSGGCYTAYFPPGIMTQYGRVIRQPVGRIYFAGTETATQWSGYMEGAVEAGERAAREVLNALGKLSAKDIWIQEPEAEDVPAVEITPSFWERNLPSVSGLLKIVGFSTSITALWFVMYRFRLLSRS
Hi! Could you tag entries with Ki below 0.01 µM as true, and those at or above as false? Much appreciated.

Worked set:
compound: CC(=O)N1N=C(c2ccc(O)cc2O)CC1c1cccc(C)c1 (stereo unspecified)
target or test system: Amine oxidase [flavin-containing] A (Bos taurus)
assigned label: false
//
compound: NC[C@H]1CN(n2cccc2)C(=O)O1
target or test system: Amine oxidase [flavin-containing] A (Bos taurus)
assigned label: false
//
compound: Cc1ccc(C2CC(c3cccs3)=NN2C(N)=S)cc1 (stereo unspecified)
target or test system: Amine oxidase [flavin-containing] A (Bos taurus)
assigned label: false
//
compound: C=CCn1ccc(N2C[C@H](CN=[N+]=[N-])OC2=O)c1
target or test system: Amine oxidase [flavin-containing] A (Bos taurus)
assigned label: true
//
compound: Cc1ccc(C2=NN(C(N)=S)C(c3ccc(Cl)cc3)C2)cc1 (stereo unspecified)
target or test system: Amine oxidase [flavin-containing] A (Bos taurus)
assigned label: false

Here is another compound to look at.
Bench note: check whether NC(=S)N1N=C(c2cccs2)CC1c1ccc(Cl)cc1 (stereo unspecified) shows Ki below 0.01 µM
false

---

Literature compilation of pKi measurements on Amine oxidase [flavin-containing] A (Bos taurus, UniProt P21398).
pKi is defined as minus the log10 of a concentration measured in mol/L.

Lookup: pKi / Amine oxidase [flavin-containing] A (Bos taurus, UniProt P21398) / `CCn1ccc(N2C[C@H](CN)OC2=O)c1`
6.89

Lookup: pKi / Amine oxidase [flavin-containing] A (Bos taurus, UniProt P21398) / NC(=S)N1N=C(c2cccs2)CC1c1ccco1 (stereo unspecified)
7.30

Lookup: pKi / Amine oxidase [flavin-containing] A (Bos taurus, UniProt P21398) / Cc1ccc(C2=NN(C(N)=S)C(c3ccco3)C2)cc1 (stereo unspecified)
8.40

Lookup: pKi / Amine oxidase [flavin-containing] A (Bos taurus, UniProt P21398) / `Cc1csc(N/N=C/c2ccccc2)n1`
8.14

Lookup: pKi / Amine oxidase [flavin-containing] A (Bos taurus, UniProt P21398) / `O=C1O[C@@H](CO)CN1n1cccc1.O=C1O[C@H](CO)CN1n1cccc1`
6.57

Lookup: pKi / Amine oxidase [flavin-containing] A (Bos taurus, UniProt P21398) / `Cc1ccc(C2=NN(C(N)=S)[C@H](c3ccc(Cl)cc3)C2)cc1`
7.30

Lookup: pKi / Amine oxidase [flavin-containing] A (Bos taurus, UniProt P21398) / `O=C1O[C@@H](CO)CN1n1cccc1`
7.05

Lookup: pKi / Amine oxidase [flavin-containing] A (Bos taurus, UniProt P21398) / `Clc1ccc(/C=N/Nc2nc(-c3ccccc3)cs2)cc1`
7.00

Lookup: pKi / Amine oxidase [flavin-containing] A (Bos taurus, UniProt P21398) / COc1ccccc1C1CC(c2ccc(O)cc2O)=NN1C(C)=O (stereo in doubt; 11)
8.10

Lookup: pKi / Amine oxidase [flavin-containing] A (Bos taurus, UniProt P21398) / `COc1ccc(/C=N/Nc2nc(C)cs2)cc1OC`
7.88

---

Literature compilation of pKi measurements on Amine oxidase [flavin-containing] A (Bos taurus, UniProt P21398).
pKi: −log10 of the molar value.
Label rule met when pKi is at or above 7; otherwise label rule not met.

molecule: Cn1ccc(N2C[C@H](CO)OC2=O)c1
assigned label: rule not met
--
molecule: Cn1cccc1C(=O)[C@@H](c1ccccc1)N1CCCCC1
assigned label: rule met
--
molecule: CNC[C@H]1CN(c2ccn(C)c2)C(=O)O1
assigned label: rule met
--
molecule: NCCOCc1cccc(Cl)c1
assigned label: rule not met
--
molecule: NC(=S)N1N=C(c2ccc(F)cc2)CC1c1ccc(Cl)cc1 (stereo unspecified)
assigned label: rule met

Can `COc1ccc(/C=N/Nc2nc(-c3ccccc3)cs2)cc1` be said to have pKi at or above 7?
rule met

Can Cn1cccc1C(=O)C(c1ccccc1)N1CCCC1 (racemic) be said to have pKi at or above 7?
rule met

Can `O=C(NCCCCCCNC(=O)c1cc2ccccc2oc1=O)c1cc2ccccc2oc1=O` be said to have pKi at or above 7?
rule met

Can COc1ccccc1C1CC(c2ccc(O)cc2)=NN1C(C)=O (single isomer, unassigned; (-)) be said to have pKi at or above 7?
rule met

Can NC(=S)N1N=C(c2cccs2)CC1c1cccs1 (stereo unspecified) be said to have pKi at or above 7?
rule met

Can CC(=O)N1N=C(c2ccc(O)cc2O)CC1c1ccccc1C (stereo unspecified) be said to have pKi at or above 7?
rule met
